These entries and their values trace back to patent US20240109974A1.

# study target: T1, human TNFR2 (Novoprotein, Cat #C830) (human, UniProt P20333 23-257, limits assumed)
# T1 construct: construct not described; also called human TNFR2 protein
# T1 sequence (looked up): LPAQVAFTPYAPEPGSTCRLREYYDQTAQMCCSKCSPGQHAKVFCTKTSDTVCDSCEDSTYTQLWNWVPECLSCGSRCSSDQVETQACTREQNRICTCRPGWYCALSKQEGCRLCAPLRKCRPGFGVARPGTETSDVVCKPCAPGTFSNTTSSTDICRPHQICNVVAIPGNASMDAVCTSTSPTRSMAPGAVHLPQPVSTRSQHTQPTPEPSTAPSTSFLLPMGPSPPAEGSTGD
# method: competition ELISA, competitor human TNFα-Biotin; area under the OD curve
readout label: AUC
Please state the value as a number alone, without comment.

Answered cases to consult:
| binder | AUC |
| --- | --- |
| 219-Hu2 (antibody, V domains shown, also called VH4 + VL5) VH: QVQLVQSGAEVKKPGSSVKVSCKASGYSFTNYWMNWVRQAPGQGLEWMGMIHPSDTETRLNQNFKDKATITADKSTSTAYMELSSLRSEDTAVYYCARGEGLGAARSVSMDYWGQGTLVTVSS VL: DIQMTQSPSSLSASVGDRVTITCRASQDISNYLNWYQQKPDGTVKLLIYYTAILHSGVPSRFSGSGSGTDYSLTISSLQPEDFATYFCQQGNTLPWTFGQGTKVEIK | 7.82 |
| 224-Hu7 (antibody, V domains shown, Humanized form of #224; also called VH9 + VL10) VH: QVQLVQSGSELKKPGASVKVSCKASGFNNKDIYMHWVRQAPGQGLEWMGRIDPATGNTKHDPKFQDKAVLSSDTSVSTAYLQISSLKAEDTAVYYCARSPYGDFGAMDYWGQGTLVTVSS VL: DIQMTQSPSSLSASVGDRVTITCTASSSVSSNYLHWYQQKPGKAPKLLIYSTSNLPSGVPSRFSGSGSGTDFTLTISSLQPEDFATYYCHQYHRSPWTFGQGTKVEIK | 7.44 |
| 224-Hu2 (antibody, V domains shown, Humanized form of #224; also called VH9 + VL7) VH: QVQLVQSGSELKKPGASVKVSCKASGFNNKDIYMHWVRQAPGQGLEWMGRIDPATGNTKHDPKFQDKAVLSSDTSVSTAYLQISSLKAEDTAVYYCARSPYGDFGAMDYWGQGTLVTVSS VL: DIQMTQSPSSLSASVGDRVTITCTASSSVSSNYLHWYQQKPGSSPKLWIYSTSNLPSGVPSRFSGSGSGTDFTLTISSLQPEDFATYYCHQYHRSPWTFGQGTKVEIK | 7.18 |
| 001-Hu3 (antibody, V domains shown, Humanized form of #001; also called VH1 + VL3) VH: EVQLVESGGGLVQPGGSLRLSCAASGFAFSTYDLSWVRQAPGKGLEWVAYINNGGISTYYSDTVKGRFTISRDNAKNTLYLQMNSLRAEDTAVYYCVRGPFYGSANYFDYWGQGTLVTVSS VL: DIQMTQSPSSLSASVGDRVTITCRTSESIYSNLPWYQQKPGKAPKLLIYDATKLAEGVPSRFSGSGSGTDYTLTISSLQPEDFATYYCQHFWVTPWTFGQGTKVEIK | 7.87 |
| 219-Hu4 (antibody, V domains shown, also called VH6 + VL5) VH: QVQLVQSGAEVKKPGSSVKVSCKASGYSFTNYWMNWVKQAPGQGLEWIGMIHPSDTETRLNQNFKDKATLTVDKSTSTAYMELSSLRSEDTAVYYCARGEGLGAARSVSMDYWGQGTLVTVSS VL: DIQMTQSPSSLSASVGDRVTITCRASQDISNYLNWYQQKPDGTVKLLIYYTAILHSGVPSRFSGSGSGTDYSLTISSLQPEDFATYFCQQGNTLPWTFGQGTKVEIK | 7.66 |

IN: For the binder shown here, 224-Hu6 (antibody, V domains shown, Humanized form of #224; also called VH8 + VL7) VH: QVQLVQSGAEVKKPGASVKVSCKASGFNNKDIYMHWVRQAPGQGLEWIGRIDPATGNTKHDPKFQDRVTMTSDTSTNTVYMELSSLRSEDTAVYYCARSPYGDFGAMDYWGQGTLVTVSS VL: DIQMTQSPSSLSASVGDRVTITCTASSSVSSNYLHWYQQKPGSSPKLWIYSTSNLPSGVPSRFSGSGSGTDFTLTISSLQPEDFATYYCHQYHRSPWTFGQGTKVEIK , give the reported AUC.
OUT: 6.46

IN: I would be grateful if you could share the reported AUC for 224-Hu3 (antibody, V domains shown, Humanized form of #224; also called VH9 + VL8) VH: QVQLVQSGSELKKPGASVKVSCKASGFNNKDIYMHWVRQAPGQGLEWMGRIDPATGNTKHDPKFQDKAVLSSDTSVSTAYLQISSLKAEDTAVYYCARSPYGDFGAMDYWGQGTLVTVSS VL: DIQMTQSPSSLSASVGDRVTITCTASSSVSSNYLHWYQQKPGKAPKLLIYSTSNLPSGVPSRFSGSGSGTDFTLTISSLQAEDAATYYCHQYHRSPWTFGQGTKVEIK .
OUT: 6.34

IN: Look up AUC for this binder: 001-Hu1 (antibody, V domains shown, Humanized form of #001; also called VH1 + VL1) VH: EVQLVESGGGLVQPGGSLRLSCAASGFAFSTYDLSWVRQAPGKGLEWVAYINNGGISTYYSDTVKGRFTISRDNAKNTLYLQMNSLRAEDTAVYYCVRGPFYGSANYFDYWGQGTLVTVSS VL: DIQMTQSPSSLSASVGDRVTITCRTSESIYSNLPWYQQKPGKAPKLLLYDATKLAEGVPSRFSGSGSGTDYTLTISSLQPEDFATYYCQHFWVTPWTFGQGTKVEIK
OUT: 7.63
